system-tested: T1, SNTG2, Q9NY99
T1 sequence (Q9NY99 68-166, limits assumed, looked up): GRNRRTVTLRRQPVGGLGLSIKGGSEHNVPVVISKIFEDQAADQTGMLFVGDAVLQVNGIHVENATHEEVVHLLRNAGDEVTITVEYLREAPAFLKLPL
measurement-notes: holdup assay
Design: key: below the threshold = too weak to quantify, mostly under pKd 3.1 to 4
condition-set: plain residues with an end cap or a label only (N-terminal biotin on a linker: ado-ado)
pKd: recorded values
outcome-measure: pKd

[[record]]
binder = "ARESQKVSHV [FAM110B, Q8TC76]"
outcome_measure = "pKd"
measured_result = 4.08

[[record]]
binder = "RQKEVRESKC [SCN8A, Q9UQD0]"
outcome_measure = "pKd"
measured_result = 4.58

[[record]]
binder = "AAVENKVTDL [PLXNB1, O43157]"
outcome_measure = "pKd"
measured_result = 3.98

[[record]]
binder = "PTPDLPQTRV [KLHDC7A, Q5VTJ3]"
outcome_measure = "pKd"
measured_result = 5.24


Values compiled from paper PMC9482650.
